Cited source: ChEMBL document CHEMBL1909046

- experimental-target: Polyunsaturated fatty acid lipoxygenase ALOX15 (Oryctolagus cuniculus, UniProt P12530); also: in other assays of this panel Not Active means under 50% inhibition at 10 µM;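 also: inhibition of 15-lipoxygenase enzyme activity measured with linoleic acid as the substrate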
- Sequence (P12530 whole entry): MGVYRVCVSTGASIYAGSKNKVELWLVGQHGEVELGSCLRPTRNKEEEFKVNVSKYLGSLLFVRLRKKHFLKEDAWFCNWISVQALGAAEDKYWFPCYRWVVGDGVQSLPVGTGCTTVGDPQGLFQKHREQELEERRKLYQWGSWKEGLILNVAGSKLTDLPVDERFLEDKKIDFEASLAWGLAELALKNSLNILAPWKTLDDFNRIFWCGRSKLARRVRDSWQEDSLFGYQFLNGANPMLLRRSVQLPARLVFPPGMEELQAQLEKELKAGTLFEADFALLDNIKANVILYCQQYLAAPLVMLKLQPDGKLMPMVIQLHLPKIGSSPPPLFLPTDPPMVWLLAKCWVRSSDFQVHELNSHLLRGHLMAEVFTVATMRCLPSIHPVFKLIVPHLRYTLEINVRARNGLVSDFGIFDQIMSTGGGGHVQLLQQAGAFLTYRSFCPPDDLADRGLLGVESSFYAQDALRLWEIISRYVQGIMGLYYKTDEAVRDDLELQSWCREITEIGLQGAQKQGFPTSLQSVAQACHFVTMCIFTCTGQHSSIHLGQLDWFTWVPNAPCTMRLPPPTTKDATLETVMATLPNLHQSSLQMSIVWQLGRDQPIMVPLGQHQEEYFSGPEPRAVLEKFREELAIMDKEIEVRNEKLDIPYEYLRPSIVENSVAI
- method-notes: biochemical
- Format: tissue-based, Reticulocytes
- run-conditions: reticulocytes

{"compound": "CO[C@H]1C[C@@H]2CC[C@@H](C)[C@@](O)(O2)C(=O)C(=O)N2CCCC[C@H]2C(=O)O[C@H]([C@H](C)C[C@@H]2CC[C@@H](O)[C@H](OC)C2)CC(=O)[C@H](C)/C=C(\\C)[C@@H](O)[C@@H](OC)C(=O)[C@H](C)C[C@H](C)/C=C/C=C/C=C/1C [SIROLIMUS]", "IC50": "Not Active"}
{"compound": "O=C(/C=C/c1ccc(O)c(O)c1)OCCc1ccccc1 [CAFFEIC ACID PHENETHYL ESTER]", "IC50": "Not Active"}
{"compound": "CCCc1nn(C)c2c(=O)[nH]c(-c3cc(S(=O)(=O)N4CCN(C)CC4)ccc3OCC)nc12", "IC50": "Not Active"}
